Target: Nav 1.7 (Homo sapiens)
Construct: expressed in transfected cells
Assay: Whole-cell voltage clamp electrophysiology, automated patch clamp (marker c in Table of Examples)
Format: cell-based
Details: marker c = Automated patch clamp data; read-out: Nav 1.7 activity
Recorded IC50 for the following molecules
Please answer using a numeric value trailed by its unit.

Please review the following examples before continuing.
{"MOLECULE": "Nc1nc(Nc2ccccc2)nc(-c2noc(-c3ncccc3Cl)n2)n1", "IC50": "142 nM"}
{"MOLECULE": "CN(c1ccccc1)c1nc(N)nc(-c2noc(C(=O)N3C[C@@H]4[C@@H](COCC5CC5)[C@@H]4C3)n2)n1", "IC50": "3460 nM"}
{"MOLECULE": "CN(c1ccccc1)c1nc(N)nc(-c2noc(-c3ccc(CN4CCCC4)nc3)n2)n1", "IC50": "1350 nM"}
{"MOLECULE": "CN(c1ccccc1)c1nc(N)nc(-c2noc(C3CCC(N)CC3)n2)n1 (stereo not shown)", "IC50": "9430 nM"}
{"MOLECULE": "CN(c1cccc(Cl)c1)c1nc(N)nc(-c2noc(-c3ccc(OCC(F)(F)F)nc3)n2)n1", "IC50": "261 nM"}
{"MOLECULE": "Nc1nc(Nc2cc(F)ccc2F)nc(-c2noc(-c3ccc(OCC(F)(F)F)nc3)n2)n1", "IC50": "195 nM"}

Next:
stdin: Entry "CN(c1ccccc1)c1nc(N)nc(-c2noc(-c3ccc(C(=O)OC4CCCC4)nc3)n2)n1" , system Nav 1.7 (Homo sapiens): what IC50 was measured?
stdout: 59 nM

* * *

Biological target: Nav 1.7 (Homo sapiens, UniProt Q15858)
Construct: expressed in transfected cells
Sequence (Q15858 whole entry): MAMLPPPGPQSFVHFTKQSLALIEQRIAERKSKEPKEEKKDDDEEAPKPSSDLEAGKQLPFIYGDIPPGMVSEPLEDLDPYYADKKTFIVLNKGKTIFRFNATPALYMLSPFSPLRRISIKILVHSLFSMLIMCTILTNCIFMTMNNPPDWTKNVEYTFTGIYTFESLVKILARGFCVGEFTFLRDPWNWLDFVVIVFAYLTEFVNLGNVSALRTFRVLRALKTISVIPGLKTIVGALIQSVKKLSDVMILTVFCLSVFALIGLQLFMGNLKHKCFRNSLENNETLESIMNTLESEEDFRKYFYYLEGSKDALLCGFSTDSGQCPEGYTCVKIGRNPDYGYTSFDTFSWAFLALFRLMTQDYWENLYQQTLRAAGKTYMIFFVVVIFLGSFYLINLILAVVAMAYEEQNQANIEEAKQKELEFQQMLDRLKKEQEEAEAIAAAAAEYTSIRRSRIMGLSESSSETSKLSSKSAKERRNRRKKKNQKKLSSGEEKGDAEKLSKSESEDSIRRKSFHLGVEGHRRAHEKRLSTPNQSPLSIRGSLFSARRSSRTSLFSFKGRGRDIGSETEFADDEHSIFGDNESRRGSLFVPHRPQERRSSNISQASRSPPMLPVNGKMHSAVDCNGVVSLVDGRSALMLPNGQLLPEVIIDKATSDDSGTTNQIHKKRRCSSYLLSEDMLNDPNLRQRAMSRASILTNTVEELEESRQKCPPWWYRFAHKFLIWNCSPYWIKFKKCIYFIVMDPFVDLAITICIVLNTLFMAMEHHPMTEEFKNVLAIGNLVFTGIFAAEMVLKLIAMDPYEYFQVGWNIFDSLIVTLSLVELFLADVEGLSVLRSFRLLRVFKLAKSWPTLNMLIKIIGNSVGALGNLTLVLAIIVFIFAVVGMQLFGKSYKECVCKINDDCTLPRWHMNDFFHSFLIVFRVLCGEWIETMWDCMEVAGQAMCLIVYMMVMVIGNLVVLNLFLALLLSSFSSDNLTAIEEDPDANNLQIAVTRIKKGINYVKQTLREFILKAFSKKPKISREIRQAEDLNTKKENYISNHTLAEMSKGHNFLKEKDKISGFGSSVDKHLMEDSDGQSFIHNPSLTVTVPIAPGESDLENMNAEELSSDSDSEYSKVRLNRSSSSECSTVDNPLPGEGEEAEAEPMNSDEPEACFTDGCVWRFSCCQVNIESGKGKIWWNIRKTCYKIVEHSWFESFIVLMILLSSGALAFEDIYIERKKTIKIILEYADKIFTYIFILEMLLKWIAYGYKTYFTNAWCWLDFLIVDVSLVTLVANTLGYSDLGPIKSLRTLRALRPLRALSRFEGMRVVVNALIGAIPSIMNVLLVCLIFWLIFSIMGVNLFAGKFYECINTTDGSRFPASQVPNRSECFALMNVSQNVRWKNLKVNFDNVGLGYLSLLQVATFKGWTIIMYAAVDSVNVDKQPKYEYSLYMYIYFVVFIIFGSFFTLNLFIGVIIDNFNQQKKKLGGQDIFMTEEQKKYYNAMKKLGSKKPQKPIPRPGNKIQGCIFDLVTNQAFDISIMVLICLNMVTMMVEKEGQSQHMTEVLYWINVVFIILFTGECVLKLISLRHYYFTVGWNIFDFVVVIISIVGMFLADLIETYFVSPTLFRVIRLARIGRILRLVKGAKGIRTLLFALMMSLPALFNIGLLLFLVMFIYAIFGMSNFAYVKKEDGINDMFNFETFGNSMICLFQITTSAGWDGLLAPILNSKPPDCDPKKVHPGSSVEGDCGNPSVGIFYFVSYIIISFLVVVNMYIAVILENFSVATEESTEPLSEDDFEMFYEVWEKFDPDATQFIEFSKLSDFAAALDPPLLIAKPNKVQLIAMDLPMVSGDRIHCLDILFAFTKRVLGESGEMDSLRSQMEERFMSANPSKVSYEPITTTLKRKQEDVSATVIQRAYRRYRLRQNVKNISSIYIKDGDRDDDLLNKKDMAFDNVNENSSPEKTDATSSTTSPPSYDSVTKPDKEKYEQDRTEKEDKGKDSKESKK
Assay: Whole-cell voltage clamp electrophysiology, automated patch clamp (marker c in Table of Examples)
Type: cell-based
Conditions: marker c = Automated patch clamp data; read-out: Nav 1.7 activity
OUTCOME MEASURE: IC50 (nM)
Dear colleague, please return just the value in nM, with no unit written.

Below are worked cases with known answers.
{"STRUCTURE AS SMILES": "CN(c1ccccc1)c1nc(N)nc(-c2noc(C(=O)N3CCC(COCC(F)(F)F)CC3)n2)n1", "IC50 [nM]": 3030}
{"STRUCTURE AS SMILES": "CN(c1ccccc1)c1nc(N)nc(-c2noc(-c3ncccc3NC3CC3)n2)n1", "IC50 [nM]": 1900}
{"STRUCTURE AS SMILES": "COCCOc1ccc(-c2nc(-c3nc(N)nc(N(C)c4ccccc4)n3)no2)cn1", "IC50 [nM]": 894}
{"STRUCTURE AS SMILES": "CN(c1ccc(F)cc1)c1nc(N)nc(-c2noc(-c3ccc(OCC(F)(F)F)nc3)n2)n1", "IC50 [nM]": 1150}

Moving on to the next compound.
stdin: Request body: readout IC50, system Nav 1.7 (Homo sapiens, UniProt Q15858), query "CN1CCN(C(=O)c2nc(-c3nc(N)nc(N(C)c4ccccc4)n3)no2)CC1" . Return the value.
stdout: 5760

* * *

Molecular target: Nav 1.7 (Homo sapiens)
Construct: expressed in transfected cells
Assay: Whole-cell voltage clamp electrophysiology, automated patch clamp (marker c in Table of Examples)
Assay type: cell-based
Settings: no platform marker printed in the cell; read-out: Nav 1.7 activity
OUTCOME MEASURE: IC50
A complete answer gives the number and then names the unit.

stdin: Could you share which IC50 value was measured for "Nc1nc(-c2noc(-c3ccco3)n2)nc(N2CCCc3ccccc32)n1" ?
stdout: 1620 nM
